List of pEC50 values.
System: P. falciparum 3D7
method-summary: SYBR I dye DNA staining assay (SJCRH), P. falciparum 3D7
measurement-context: Plasmodium falciparum, 3D7, 72 h, read-out: EC50 3D7
Interpret pEC50 as the negative base-10 log of the concentration measured in mol/L.

Consider the worked cases shown below.
molecule | observed-value
CN(Cc1cnc2nc(N)nc(N)c2n1)c1ccc(C(=O)N[C@@H](CCC(=O)O)C(=O)O)cc1 [Methotrexate] | 8.00
Nc1nc(N)c2nc(CNc3ccc(C(=O)N[C@@H](CCC(=O)O)C(=O)O)cc3)cnc2n1 | 6.49
CS(=O)(=O)CCNCc1ccc(-c2ccc3ncnc(Nc4ccc(OCc5cccc(F)c5)c(Cl)c4)c3c2)o1 | 6.25
CCCNCC(O)COc1ccccc1C(=O)CCc1ccccc1 (centres unmarked) | 5.91

Proceed to the following item.
Request: Can you look up the measured pEC50 of CO[C@@]12[C@H](COC(N)=O)C3=C(C(=O)C(C)=C(N)C3=O)N1C[C@@H]1N[C@@H]12 for me?
Result: 6.01
